Biological target: 3',5'-cyclic-AMP phosphodiesterase 4B (Homo sapiens)
Test: qHTS Assay for Inhibitors of PDE-IV (AID 607); further: % of control where 0% means no effect
Conditions: HEK293 ACTOne CNG channel cells, membrane potential fluorescence; series mostly up to 22.9 µM
Method: NIH Chemical Genomics Center [NCGC] NIH Molecular Libraries Screening Centers Network [MLSCN] […] Here we report the development of a cell-based screening assay for cAMP phosphodiesterase (PDE) inhibitors. […] The influx of cations through the CNG channel can be quantified using membrane potential (MP) dyes. […] The activity of the CNG channel was measured by BD ACTOneTM membrane potential dye kit (BD Biosciences). […]
Results filed as inconclusive are left out. Calls of active or inactive are those of the source. The call rests on the fitted dose curve; in most records, active means well fitted activation curve with a large enough effect in the main read-out, with a control signal flat (not every such curve was filed as active); inconclusive means small, poorly fitted or top-dose-only effect, or effect the other way, or a change in a side signal; inactive means flat fitted curve, though single readings scatter.
property_label: outcome

Solved cases below.
smiles_structure: Cc1ccccc1-c1cc(N(C)Cc2ccco2)ncn1
assayed_target: 3',5'-cyclic-AMP phosphodiesterase 4B (Homo sapiens)
outcome: inactive

smiles_structure: O=C(c1ccncc1)N1CCC[C@@]2(CCN(Cc3ccccc3)C2)C1
assayed_target: 3',5'-cyclic-AMP phosphodiesterase 4B (Homo sapiens)
outcome: inactive

smiles_structure: Cn1cccc1C(=O)N1CCC[C@@]2(CCN(C(c3ccccc3)c3ccccc3)C2)C1
assayed_target: 3',5'-cyclic-AMP phosphodiesterase 4B (Homo sapiens)
outcome: inactive

smiles_structure: COCC(=O)N1CCC2(CC1)CN(c1cccc(-c3ccccc3)c1)C2
assayed_target: 3',5'-cyclic-AMP phosphodiesterase 4B (Homo sapiens)
outcome: inactive

outcome of `Cn1cccc1C(=O)N1CCC2(CCN(Cc3ccncc3)CC2)CC1` on 3',5'-cyclic-AMP phosphodiesterase 4B (Homo sapiens)? inactive

outcome of `CN1CCc2cccc3c2[C@@H]1Cc1ccc(O)c(O)c1-3` on 3',5'-cyclic-AMP phosphodiesterase 4B (Homo sapiens)? inactive

###

Experiment: qHTS Assay for Identification of Small Molecule Agonists for Hypoxia Response Element Signaling Pathway (AID 914); further: % of control where 0% means no effect
Conditions: ME-180 HRE-bla reporter, beta-lactamase ratio, CoCl2, 17 h; stronger effect = higher value
Source text: NIH Molecular Libraries Screening Centers Network [MLSCN] NIH Chemical Genomics Center [NCGC] Hypoxia-inducible factor-1 (HIF-1) is the major hypoxia-regulated transcription factor that controls cellular responses to low oxygen concentration. HIF-1 is composed of two subunits: hypoxia responsive HIF-1 alpha and constitutively expressed HIF-1 beta, which is also known as aryl hydrocarbon receptor nuclear translocator. […]
Results filed as inconclusive are left out.
property_label: activation (%)
Report as a plain number; the unit % is understood.

smiles_structure: FC(F)(F)c1ccccc1-c1nc(-n2ccnc2)c2ccccc2n1
property_label: activation
quantitative_readout: 2.67

smiles_structure: Cc1ccccc1-c1nc(N2CCOCC2)c2ccccc2n1
property_label: activation
quantitative_readout: 11

smiles_structure: O=c1c(-c2cc(F)cc(F)c2)nc2cnc(Oc3ccccc3)nc2n1C1CC1
property_label: activation
quantitative_readout: 7.93

smiles_structure: c1csc(CNc2ncncc2-c2ccoc2)c1
property_label: activation
quantitative_readout: 2.26

Now consider the entry below.
Suppose we examine the compound `COC(=O)N1CCC2(CCCN(c3ncccn3)C2)CC1` ; what activation value has been reported? 12.6

###

Experiment: Stat Signaling Pathway (AID 446);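 further: ME-180 cervical cancer cells given 40 pM IL-6 alongside compound; SIE-controlled beta-lactamase reporter measured as 460/530 nm FRET emission ratio; on the % scale 0 is the no-effect control and ±100 the full control effect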
Conditions: ME-180 SIE beta-lactamase reporter, IL-6 stimulated, 5 h; at 7.69 µM (top of the series) unless noted
Protocol: NCGC Assay Overview: The IL-6/STAT signaling pathway was assayed in ME-180 cervical carcinoma cells by a beta-lactamase reporter gene controlled by a STAT Inducible Element (SIE). This reporter is induced by IL-6 at 40 pM AC50 and inhibited by the pan JAK inhibitor, 2-(1,1-Dimethylethyl)-9-fluoro-3,6-dihydro-7H-benz[h]-imidaz[4,5-f]isoquinolin-7-one, at approximately 10 nM AC50. Plated cells were incubated overnight and on the following day, stimulated with 40 pM IL-6 for 5 hrs. […]
Records with an inconclusive call do not appear. Active and inactive are the calls of the source. Calls come from the whole dose curve; as a rule, active = well fitted curve in either direction with a large enough effect (not every such curve was filed as active); inconclusive = small, poorly fitted or top-dose-only effect, or another doubt; inactive = flat fitted curve, though single readings scatter.
property_label: activity, negative = inhibition

Solved cases below.
smiles_structure: CS(=O)(=O)Nc1cccc(-c2nc(NCCN3CCOCC3)c3ccccc3n2)c1
activity, negative = inhibition: -7.39% (inactive)

smiles_structure: COc1ncc2nc(C)c(=O)n(CCC#N)c2n1
activity, negative = inhibition: -5.09% (inactive)

smiles_structure: COc1cccc(-c2nccc(NC3CCNCC3)n2)c1
activity, negative = inhibition: 14.2% (inactive)

smiles_structure: Cn1cccc1C(=O)N1CCC2(CC1)CCN(c1ccncc1)CC2
activity, negative = inhibition: 6.85% (inactive)

smiles_structure: COc1ccc(C(=O)N2CCC3(CCCN(Cc4nccs4)C3)CC2)cc1
activity, negative = inhibition: -4.62% (inactive)

Suppose we examine the compound `CCNc1ncc2nc(-c3ccc(F)cc3)c(=O)n(C)c2n1` ; what activity, negative = inhibition value has been reported? -0.235% (inactive)

Suppose we examine the compound `COc1ccc(CNc2ncnc3ccc(-c4ccc(N(C)C)cc4)cc23)c(OC)c1` ; what activity, negative = inhibition value has been reported? -9.37% (inactive)

Suppose we examine the compound `COc1ncc2nc(CCc3ccccc3)c(=O)n(Cc3ccc(F)cc3)c2n1` ; what activity, negative = inhibition value has been reported? 2.49% (inactive)

Suppose we examine the compound `c1ccc(CNc2ncncc2-c2cccnc2)cc1` ; what activity, negative = inhibition value has been reported? -3.91% (inactive)

Suppose we examine the compound `COCCNc1nc(-c2cccc(OC)c2)nc2ccccc12` ; what activity, negative = inhibition value has been reported? -13.7% (inactive)

Suppose we examine the compound `CS(=O)(=O)Nc1cccc(-c2nc(N3CCNCC3)c3ccccc3n2)c1` ; what activity, negative = inhibition value has been reported? 2.63% (inactive)

Suppose we examine the compound `Cc1noc(C)c1C(=O)N1CCC2(CCN(Cc3ccccc3)CC2)CC1` ; what activity, negative = inhibition value has been reported? 1% (inactive)

Suppose we examine the compound `CC(C)NC(=O)N1CC[C@@]2(CCCN(C(=O)c3ccco3)C2)C1` ; what activity, negative = inhibition value has been reported? 8.1% (inactive)

Suppose we examine the compound `COc1cccc(Cn2c(=O)cnc3cnc(Nc4ccccc4)nc32)c1` ; what activity, negative = inhibition value has been reported? -29.7% (inactive)

Suppose we examine the compound `Cc1noc(C)c1C(=O)N1CCC2(CC1)CCN(c1ccccn1)CC2` ; what activity, negative = inhibition value has been reported? -0.0391% (inactive)

Suppose we examine the compound `Cc1ccccc1-c1ccc2ncnc(N3CCNCC3)c2c1` ; what activity, negative = inhibition value has been reported? 9.45% (inactive)

Suppose we examine the compound `Cc1noc(C)c1C(=O)N1CCC2(CC1)CN(c1ccccn1)C2` ; what activity, negative = inhibition value has been reported? 3.57% (inactive)

Suppose we examine the compound `COc1ccc(-c2nc3cnc(N4CCN(C)CC4)nc3n(C)c2=O)cc1` ; what activity, negative = inhibition value has been reported? 26.5% (inactive)

Suppose we examine the compound `CS(=O)(=O)N1CCC2(CC1)CN(c1ccccc1)C2` ; what activity, negative = inhibition value has been reported? -8.44% (inactive)

Suppose we examine the compound `O=C(c1cccc(F)c1)N1CCC[C@@]2(CCN(Cc3ccncc3)C2)C1` ; what activity, negative = inhibition value has been reported? -0.901% (inactive)

Suppose we examine the compound `O=S(=O)(c1ccccc1)N1CCC2(CCCN(C(c3ccccc3)c3ccccc3)C2)CC1` ; what activity, negative = inhibition value has been reported? -3.12% (inactive)

Suppose we examine the compound `CN(C)C(=O)c1ccc(-c2nccc(NCc3cccnc3)n2)cc1` ; what activity, negative = inhibition value has been reported? 2.62% (inactive)

Suppose we examine the compound `Cn1c(=O)c(-c2ccc(F)cc2)nc2cnc(OCc3ccccc3)nc21` ; what activity, negative = inhibition value has been reported? -11.9% (inactive)

Suppose we examine the compound `c1cncc(-c2ccc3ncnc(NCCN4CCOCC4)c3c2)c1` ; what activity, negative = inhibition value has been reported? 2.95% (inactive)

Suppose we examine the compound `COc1cccc(Nc2ncc3ncc(=O)n(C)c3n2)c1` ; what activity, negative = inhibition value has been reported? -17.5% (inactive)

###

Assay: Stat Signaling Pathway (AID 446);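 further: ME-180 cervical cancer cells given 40 pM IL-6 alongside compound; SIE-controlled beta-lactamase reporter measured as 460/530 nm FRET emission ratio; on the % scale 0 is the no-effect control and ±100 the full control effect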
Details: ME-180 (cervical carcinoma) SIE beta-lactamase reporter, IL-6 stimulated, 5 h; at 7.69 µM (top of the series) unless noted
Inconclusive results are not listed.
property_label: activity, negative = inhibition (%)
Report as a plain number; the unit % is understood.

Solved cases below.
smiles_structure: O=C(c1cccc(F)c1)N1CCC2(CCCN(c3ccccn3)C2)CC1
activity, negative = inhibition [%]: -2.13
//
smiles_structure: O=C(c1cnccn1)N1CCC2(CC1)CCN(c1ncccn1)CC2
activity, negative = inhibition [%]: -9.82
//
smiles_structure: Cc1noc(C)c1C(=O)N1CCC[C@@]2(CCN(Cc3nccs3)C2)C1
activity, negative = inhibition [%]: -7.79

Suppose we examine the compound `O=C(c1ccco1)N1CCC2(CCCN(c3ccccn3)C2)CC1` ; what activity, negative = inhibition value has been reported? -3.59

Suppose we examine the compound `CC(C)NC(=O)N1CC[C@@]2(CCCN(C(=O)c3cnccn3)C2)C1` ; what activity, negative = inhibition value has been reported? 4.04

Suppose we examine the compound `COc1ccc(Oc2ncc3nc(C)c(=O)n(C4CC4)c3n2)cc1` ; what activity, negative = inhibition value has been reported? -4.78
